Attribution: patent US11518754B2

Can you tell me fraction unbound for the items I'm about to list?
test: Plasma free fraction (fp) by ultrafiltration method; format: in vitro ADME, rhesus monkeys (Macaca mulatta); conditions: plasma (from arterial blood samples), rhesus monkey plasma

Example entries begin here.
Cc1cnccc1CN1CC(c2cc(F)c(F)c(F)c2)CC1=O (single isomer, unassigned) [^11C-3] | 0.44
O=C1CC(c2cc(F)c(F)c(F)c2)CN1Cc1ccncc1F (stereo not shown) [^18F-10] | 0.52
Cc1cnccc1CN1CC(c2cc(F)cc(F)c2)CC1=O (stereo not shown) [^18F-5] | 0.42
Cc1cnccc1CN1CC(c2ccc(F)c(F)c2)CC1=O (stereo not shown) [^18F-4] | 0.41
Cc1cnccc1CN1CC(c2cccc(F)c2)CC1=O (stereo not shown) [^18F-11] | 0.42

For each of the items listed, what is its fraction unbound?
1. O=C1CC(c2cccc(F)c2)CN1Cc1ccncc1 (stereo not shown) [^18F-12]
2. Cc1cnccc1CN1CC(c2cc(F)c(F)c(F)c2)CC1=O (stereo not shown) [^18F-3]

1: 0.61; 2: 0.42
